System: ZIKV replicon in Vero cells
Test protocol: ZIKV Replication Inhibition Assay (replicon, NanoLuc)
Study conditions: Zika virus, Vero, 72 h, read-out: Zika Replicon EC50
pEC50: −log10 of the molar value. Where a name gives a salt, the structure may show the parent alone.
Recorded pEC50 for the following compounds

Task: Name the recorded pEC50 of the item Cc1cc(C[n+]2cc([N-]C(=O)Nc3cccc(C(F)(F)F)c3)on2)ccc1-c1c(C)noc1C [Example 88] in your answer.
Output: > 7.00

Task: State, in one line, measured pEC50 of NC[C@@H](c1ccc(-c2cncnc2)cc1)[n+]1cc([N-]C(=O)Nc2cccc(C(F)(F)F)c2)on1 [Example 102, formate]
Output: 6.00 to 7.00

Task: Please report pEC50 for the following compound: O=C([N-]c1c[n+](Cc2ccc(-c3cncnc3C3CC3)cn2)no1)Nc1cccc(C(F)(F)F)c1 [Example 155]
Output: 6.00 to 7.00
